target: human GLP-1R (Homo sapiens, UniProt P43220); construct: host or cells: HEK293; assay: GLP-1R cAMP assay (Example B1a, HTRF, 30 min at room temperature); type: cell-based; details: cAMP accumulation in HEK293 expressing human GLP-1R, no BETP, 30 min room temperature (Method B1a, compounds ID 1-609), Table 1; read-out: EC50
Sequence (P43220 24-463): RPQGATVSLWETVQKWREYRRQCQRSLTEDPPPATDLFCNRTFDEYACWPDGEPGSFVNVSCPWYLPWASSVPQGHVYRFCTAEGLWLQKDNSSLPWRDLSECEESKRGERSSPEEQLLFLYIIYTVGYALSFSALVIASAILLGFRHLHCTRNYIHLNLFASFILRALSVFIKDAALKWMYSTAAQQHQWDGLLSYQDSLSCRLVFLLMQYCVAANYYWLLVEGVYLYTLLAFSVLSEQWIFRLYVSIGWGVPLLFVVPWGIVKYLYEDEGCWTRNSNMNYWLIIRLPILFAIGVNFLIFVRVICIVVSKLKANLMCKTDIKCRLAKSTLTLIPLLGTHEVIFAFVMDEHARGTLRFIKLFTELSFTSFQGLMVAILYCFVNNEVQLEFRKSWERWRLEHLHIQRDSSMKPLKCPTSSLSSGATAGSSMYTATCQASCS
pEC50: −log10 of the molar value.
quantity.name: pEC50

>  <compound>
Cc1cc(-n2nc3c(c2-n2ccn(-c4ccc5c(cnn5C)c4F)c2=O)[C@@H]2CC[C@H](C3)N2C(=O)c2cc3cc([C@H]4CCOC(C)(C)C4)ccc3n2[C@@]2(C(=O)NC3CC3)C[C@@H]2C)cc(C)c1F [Compound 246]

>  <system.under.test>
human GLP-1R (Homo sapiens, UniProt P43220)

>  <result.value>
6.16

$$$$

a. Cc1cc(-n2nc3c(c2-n2ccn(-c4ccc5c(cnn5C)c4F)c2=O)[C@@H]2CC[C@H](C3)N2C(=O)c2cc3cc(C4CCOC(C)(C)C4)cnc3n2[C@@]2(c3noc(=O)[nH]3)C[C@@H]2C)cc(C)c1F (stereo partly shown) [Compound 311]
b. Cc1cc(-n2nc3c(c2-n2ccn(-c4ccc5c(cnn5C)c4F)c2=O)[C@@H]2CC[C@H](C3)N2C(=O)c2cc3nc(C4CCOC(C)(C)C4)ccc3n2[C@@]2(c3noc(=O)[nH]3)C[C@@H]2C)cc(C)c1F (stereo partly shown) [Compound 210]
c. Cc1cc(-n2nc3c(c2-n2ccn(-c4ccc5c(cnn5C)c4F)c2=O)[C@@H]2COC[C@H](C3)N2C(=O)c2cc3cc([C@H]4CCOC(C)(C)C4)ncc3n2[C@@]2(c3noc(=O)[nH]3)C[C@@H]2C)cc(C)c1F [Compound 225]
rank_up(items): orders items by reported pEC50 in ascending numerical order. A complete answer lists every label in the requested sequence. b, a, c

###

Items are presented alongside their recorded half-life.
test: in vivo; settings: male, cynomolgus monkey, iv, 0.12 mg/kg
Expressed in h, but write only the number.

Please review the following examples before continuing.
>  <compound>
Cc1cc(-n2nc3c(c2-n2ccn(-c4ccc5c(cnn5C)c4F)c2=O)[C@@H]2CC[C@H](C3)N2C(=O)c2cc3cc([C@H]4CCOC5(CC5)C4)ccc3n2[C@@]2(c3noc(=O)[nH]3)C[C@@H]2C)cc(C)c1F [Compound 214]

>  <result.value>
3.66

$$$$
>  <compound>
Cc1cc(-n2nc3c(c2-n2ccn(-c4ccc5c(cnn5C)c4F)c2=O)[C@@H]2COC[C@H](C3)N2C(=O)c2cc3cc([C@H]4CCOC(C)(C)C4)ccc3n2[C@@]2(c3noc(=O)[nH]3)C[C@@H]2C)cc(C)c1F [Compound 121]

>  <result.value>
2.26

$$$$

Specify half-life for Cc1cc(-n2nc3c(c2-n2ccn(-c4ccc5c(cnn5C)c4F)c2=O)[C@@H]2CC[C@H](C3)N2C(=O)c2cc3cc([C@H]4CCOC(C)(C)C4)ccc3n2[C@@]2(c3noc(=O)[nH]3)C[C@@H]2C)cc(C)c1F [Compound 36] and stop. 4.55

###

molecular target: human GLP-1R (Homo sapiens, UniProt P43220); construct: host or cells: HEK293; assay: GLP-1R cAMP assay (Example B1a, HTRF, 30 min at room temperature); format: cell-based; details: cAMP accumulation in HEK293 expressing human GLP-1R, no BETP, 30 min room temperature (Method B1a, compounds ID 1-609), Table 1; read-out: EC50
pEC50: −log10 of the molar value.
quantity.name: pEC50

>  <compound>
Cc1cc(-n2nc3c(c2-n2ccn(-c4ccc5nnccc5c4)c2=O)[C@@H]2CC[C@H](C3)N2C(=O)c2cc3cc([C@H]4CCOC(C)(C)C4)ccc3n2C2(c3noc(=O)[nH]3)CC2)cc(C)c1F [Compound 119]

>  <system.under.test>
human GLP-1R (Homo sapiens, UniProt P43220)

>  <result.value>
5.64

$$$$

1. CCS(=N)(=O)c1ccc(-n2ccn(-c3c4c(nn3-c3cc(C)c(F)c(C)c3)C[C@H]3CC[C@@H]4N3C(=O)c3cc4cc([C@H]5CCOC(C)(C)C5)ccc4n3[C@@]3(c4noc(=O)[nH]4)C[C@@H]3C)c2=O)c(F)c1 (stereo partly shown) [Compound 428]
2. Cc1cc(-n2nc3c(c2-n2ccn(-c4ccc5ccncc5c4F)c2=O)[C@@H]2CCC[C@H](C3)N2S(=O)(=O)c2cc3cc([C@H]4CCOC(C)(C)C4)ccc3n2[C@@]2(c3noc(=O)[nH]3)C[C@@H]2C)cc(C)c1F [Compound 602]
Looking at 1 and 2 , which one comes out lower in pEC50 terms? Write down the label attached to your selection. 2
(2: 5.96, 1: 7.02)
